Sequence of the target: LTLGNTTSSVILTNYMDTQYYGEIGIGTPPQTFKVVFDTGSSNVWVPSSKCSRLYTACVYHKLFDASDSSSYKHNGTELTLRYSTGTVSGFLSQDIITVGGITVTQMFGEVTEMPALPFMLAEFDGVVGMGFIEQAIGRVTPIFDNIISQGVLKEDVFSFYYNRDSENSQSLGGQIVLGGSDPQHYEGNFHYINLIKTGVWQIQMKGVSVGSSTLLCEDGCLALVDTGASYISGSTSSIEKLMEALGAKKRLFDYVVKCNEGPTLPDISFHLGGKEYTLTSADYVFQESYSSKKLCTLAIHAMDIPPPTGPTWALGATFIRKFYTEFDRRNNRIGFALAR
Param label: returns 1.0 when IC50 < 70 nM, returns 0.0 otherwise, including exact equality.

Quick check: IC50 of O=C(N[C@@H](Cc1c[nH]cn1)C(=O)NCC(O)CO)c1[nH]c2ccccc2c1CCc1ccccc1 (some centres unmarked) under 70 nM?
0.0

---

Protein target, amino acids: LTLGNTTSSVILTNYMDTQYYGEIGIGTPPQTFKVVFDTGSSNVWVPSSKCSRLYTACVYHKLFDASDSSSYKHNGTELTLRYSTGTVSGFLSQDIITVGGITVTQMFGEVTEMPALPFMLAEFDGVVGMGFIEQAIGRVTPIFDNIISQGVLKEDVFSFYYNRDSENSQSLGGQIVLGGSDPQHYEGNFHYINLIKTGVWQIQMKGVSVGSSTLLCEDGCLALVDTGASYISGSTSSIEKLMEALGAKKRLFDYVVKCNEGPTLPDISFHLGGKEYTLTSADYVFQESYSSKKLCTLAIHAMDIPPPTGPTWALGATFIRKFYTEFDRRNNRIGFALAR
Param label: returns true when IC50 < 70 nM, returns false otherwise, including exact equality.

In [3]: df
Out[3]:
                                   molecule  category
0  CC1=C(C(=O)N[C@@H](Cc2c[nH]cn2)C(=O)N[C@@H](CC2CCCCC2)[C@@H](O)[C@@H](O)CC(C)C)Cc2ccccc21     false
1  CC(C)C[C@H](O)[C@H](O)[C@H](CC1CCCCC1)NC(=O)[C@H](Cc1c[nH]cn1)NC(=O)N1CCc2ccccc2C1      true
2  CCCCC(C(=O)N[C@@H](CC1CCCCC1)[C@@H](O)[C@@H](O)CC(C)C)N1Cc2c([nH]c3ccccc23)C1=O (stereo partly shown)      true
3  CC(C)C[C@H](O)[C@H](O)[C@H](CC1CCCCC1)NC(=O)[C@H](Cc1cc[nH]n1)N1Cc2c([nH]c3ccccc23)C1=O      true
4  O=C(N[C@@H](Cc1c[nH]cn1)C(=O)NCC(O)CO)c1[nH]c2ccccc2c1CCCC1CCCCC1 (stereo partly shown)     false
5  CC(C)C[C@H](O)[C@H](O)[C@H](CC1CCCCC1)NC(=O)[C@H](Cc1c[nH]cn1)NC(=O)c1ccc2ccccc2c1      true

# evaluate next
Quick check: IC50 of CCCC[C@@H](C(=O)N[C@@H](CC1CCCCC1)[C@@H](O)[C@@H](O)CC(C)C)N1CCc2c([nH]c3ccccc23)C1=O under 70 nM?
true
